molecular target: T1, MYOF peptide complexed with HLA-A*02:01 on T2 cells (human); assay: flow cytometry, peptide-loaded T2 cells;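 further: binding of single-chain Fv antibody constructs, raised in XenoMouse, to peptide-pulsed T2 cells measured by flow cytometry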
T1 construct: whole, on cells

binder | Signal/background
18179-D7 (scFv, scFv in bacterial lysate, detected with anti-Flag M2) scFv: EVQLLESGGGLVQPGGSLRLSCAASGFTFSNAWMSWVRQAPGKGLEWVGRIKGNTYGGTTDYAAPVKGRFTISRDDSKNTLFLQMNSLKTEDTAVYYCTTPSYSGSYYNYFSVMDVWGQGTTVTVSSGGGGSGGGGSGGGGSELVMTQSPSSLSASVGDRVTITCRTSQSISSYLNWYQQKPGRAPKLLIFAASSLQGGVPSRFSGSGSGTDFTLTISSLQPEDFATYYCQQTYSMPFTFGPGTKVDIK | 1
18081-E7 (scFv, scFv in bacterial lysate, detected with anti-Flag M2) scFv: EVQLLESGPGLVKPSETLSLTCTVSGDSISSSRYYWGWIRQPPGKGLEWIGSIYYSGSTYYNPSLKSRVTISVDTSKNQFSLKLSSVTAADTAVYYCARGIFGVITYFDYWGQGTLVTVSSGGGGSGGGGSGGGGSELVMTQTPDSLAVSLGERATINCKSSQSVLYSSNNKNYLAWYQQKPGQPPKLLIYWASTRESGVPDRFSGSGSGTDFTLTISSLQAEDVAVYYCQQYYSTPLTFGGGTKVEIK | 1.1
18181-G8 (scFv, scFv in bacterial lysate, detected with anti-Flag M2) scFv: EVQLLESGGGLVQPGGSLRLSCAASGFTFSNAWMSWVRQAPGKGLEWVGRIKGNTYGGTTDYAAPVKGRFTISRDDSKNTLFLQMNSLKTEDTAVYYCTTPSNSGSYYNYFSVMDVWGQGTTVTVSSGGGGSGGGGSGGGGSELVMTQSPSSLSASVGDRVTITCRTSQSISSYLNWYQQKPGKAPKLLIYAASSLQSGVPSRFSGSGSGTDFTLTISSLQPEDFATYYCQQTYSMPFTFGGGTKVEIK | 1
